Reference source: ChEMBL document CHEMBL3992492

solubility at 10000 µM reference
Assay: physchem
Conditions: acetonitrile/water mixture
Description: Solubility of the compound in acetonitrile/water mixture at 10 mM measured after 24 by HPLC-UV method
observed-property: solubility at 10000 µM

molecule | experimental-result
CCS(C)(=O)=Nc1ccc(C(F)(F)F)cc1 (stereo unspecified) | > 51 µg/mL
C[S+]([O-])c1ccc(C(F)(F)F)cc1 (stereo unspecified) | > 46 µg/mL
CS(C)(=N)=NC(=O)Nc1ccc(C(F)(F)F)cc1 | > 68 µg/mL
O=S1(=Nc2ccccc2Cl)CCCCC1 | > 50 µg/mL
CS(C)(=O)=Nc1ccc(C(F)(F)F)cc1 | > 50 µg/mL
NS(=O)(=O)c1ccc(C(F)(F)F)cc1 | > 48 µg/mL
